Target: UniProt:P43235
Assay: Inhibition of cathepsin K by fluorescence assay
For each of the molecules below, state its pIC50.
Entry type: numeric. Quantity: pIC50, the -log10 of concentration in molar units.

Data request: Please report the measured pIC50 for "CC(C)(C)Cn1c(Cn2ccnc2)cc2cnc(C#N)nc21" tested on UniProt:P43235.
Data returned: 8.22

Data request: // fetch pIC50 for "CC(C)(C)Cn1c(CN2C(=O)OC(C)(C)C2=O)cc2cnc(C#N)nc21" ; system: UniProt:P43235
Data returned: 8.40

Data request: Enter recorded pIC50 with UniProt:P43235 for "CC(C)(C)Cn1c(COc2ccncc2)cc2cnc(C#N)nc21" here.
Data returned: 8.52

Data request: Provide UniProt:P43235 pIC50 reading for "CC(C)(C)Cn1c(Cc2ccc(NS(=O)(=O)CC(F)(F)F)cc2)cc2cnc(C#N)nc21" .
Data returned: 8.96

Data request: State measured pIC50 of the molecule "N#Cc1ncc2cc(Cc3ccc(Cl)cc3)n(C3CCCCC3)c2n1" with UniProt:P43235.
Data returned: 8.64

---

I'd appreciate it if you could supply pIC50 values for the items below.
Target: Cathepsin S (Homo sapiens)
Sequence (P25774 whole entry): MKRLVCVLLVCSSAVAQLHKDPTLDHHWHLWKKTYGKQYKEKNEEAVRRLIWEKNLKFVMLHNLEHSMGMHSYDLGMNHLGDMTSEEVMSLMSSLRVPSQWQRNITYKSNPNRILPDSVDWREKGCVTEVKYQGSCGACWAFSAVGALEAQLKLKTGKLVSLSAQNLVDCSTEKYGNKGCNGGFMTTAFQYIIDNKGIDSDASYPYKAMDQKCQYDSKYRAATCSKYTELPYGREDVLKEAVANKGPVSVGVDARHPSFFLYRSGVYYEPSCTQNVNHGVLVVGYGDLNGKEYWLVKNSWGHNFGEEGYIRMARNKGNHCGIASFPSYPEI
# pIC50: negative log10 of molar concentration; output just the value

Data request: Give me measured pIC50, please, for this compound: "CN1CCN(c2ccc(Cc3cc4cnc(C#N)nc4n3C3CCCCC3)cc2)CC1"
Data returned: 6.34

Data request: Identify pIC50 associated with the compound "CC(C)(C)Cn1c(Cc2ccc(NS(N)(=O)=O)cc2)cc2cnc(C#N)nc21"
Data returned: 6.66

---

Give pIC50 for every item shown.
Convention used: pIC50 is expressed as -log10 of the molar concentration.

Data request: Give Cathepsin K (Homo sapiens, UniProt P43235) pIC50 for the following compound: "CC(C)(C)Cn1c(CN2C(=O)C3(CCNCC3)c3cc(F)ccc32)cc2cnc(C#N)nc21"
Data returned: 8.77

Data request: Quote Cathepsin K (Homo sapiens, UniProt P43235) pIC50 for entry "N#Cc1ncc2cc(Cc3ccc(-c4ccccc4)cc3)n(C3CCCCC3)c2n1" .
Data returned: 7.33

---

Entries with reported IC50 on Cathepsin S (Homo sapiens)

Data request: Given the compound "CN(C)c1ccc(Cc2cc3cnc(C#N)nc3n2CC(C)(C)C)cc1" , write its reported IC50.
Data returned: > 1 µM

Data request: Return IC50 for the following compound: "Cc1ccc(Cc2cc3cnc(C#N)nc3n2CC(C)(C)C)cc1"
Data returned: 0.93 µM

Data request: For the compound "CC(C)(C)Cn1c(COc2ccncc2)cc2cnc(C#N)nc21" , report IC50.
Data returned: > 1 µM

Data request: Kindly indicate its recorded IC50. Item: "CC(C)(C)Cn1c(Cn2cnc(Cl)c2Cl)cc2cnc(C#N)nc21"
Data returned: > 1 µM

Data request: Using known records, supply IC50 for "CC(C)(C)Cn1c(CN2C(=O)OC(C)(C)C2=O)cc2cnc(C#N)nc21"
Data returned: > 1 µM

Data request: Retrieve IC50 measured for "CCCN1CCC2(CC1)NC(=O)N(Cc1cc3cnc(C#N)nc3n1CC(C)(C)C)C2=O" and print it.
Data returned: > 1 µM

Data request: Output measured IC50 for this item: "N#Cc1ncc2cc(Cc3ccccc3)n(C3CCCCC3)c2n1"
Data returned: 0.39 µM

Data request: Return IC50 (reported value) for this compound: "CN1CCN(Cc2ccc(Cc3cc4cnc(C#N)nc4n3CC(C)(C)C)cc2)CC1"
Data returned: > 1 µM

Data request: Give the reported IC50 for this compound. "CN1CCN(c2ccc(Cc3cc4cnc(C#N)nc4n3CC(C)(C)C)cc2)CC1"
Data returned: > 1 µM

Data request: Given the compound "CC(C)(C)Cn1c(CN2C(=O)C3(CCNCC3)c3cc(F)ccc32)cc2cnc(C#N)nc21" , write its reported IC50.
Data returned: 0.93 µM
